Origin of measurements: patent US20250163056A1

experimental.protocol: Photostability, percentage remaining undegraded under illumination or in the dark
condition.notes: percentage remaining undegraded after 4 hours illumination
Checkbox rule: Photostability 4 hours lower than 90% = Criterion met; Photostability 4 hours not lower than 90% = Criterion not met.

molecule | category
Cc1cc2c(cc1F)C(=O)[C@]1(O)CCN(c3ccc4ncsc4c3)C1=N2 [BPN-0027196] | Criterion not met
Cc1cc2c(cc1F)C(=O)[C@]1(O)CCN(c3ccc(C)c(Cl)c3)C1=N2 [BPN-0026606] | Criterion met
Cc1ccc2c(c1)C(=O)[C@]1(O)CCN(c3ccc4ccoc4c3)C1=N2 [BPN-0026285] | Criterion met
Cc1cc2c(cc1C)C(=O)[C@]1(O)CCN(c3ccc4nc(C#N)ccc4c3)C1=N2 [BPN-0027492] | Criterion not met
Cc1ccc2c(c1)C(=O)[C@]1(O)CCN(c3ccc(C)c(C)c3)C1=N2 [BPN-0025903] | Criterion met
COc1ccc2cc(N3CC[C@@]4(O)C(=O)c5cc(C)c(C)cc5N=C34)ccc2n1 [BPN-0027250] | Criterion met
Cc1cc(N2CC[C@@]3(O)C(=O)c4cc(Cl)ccc4N=C23)ccc1C#N [BPN-0026457] | Criterion not met
Cc1ccc2c(c1)C(=O)[C@]1(O)CCN(c3ccc4ncccc4c3)C1=N2 [BPN-0027040] | Criterion not met
Cc1cc(N2CC[C@@]3(O)C(=O)c4cc(C)c(C)cc4N=C23)ccn1 [BPN-0028616] | Criterion not met
Cn1cc(N2CC[C@@]3(O)C(=O)c4cc(C(F)(F)F)ccc4N=C23)cn1 [BPN-0026413] | Criterion not met
Cc1ccc2c(c1)C(=O)[C@]1(O)CCN(c3cccc(Cl)c3)C1=N2 [BPN-0025059] | Criterion not met
Cc1ccc2c(c1)C(=O)[C@]1(O)CCN(c3ccc4nccnc4c3)C1=N2 [BPN-0027330] | Criterion not met
O=C1c2cc(Cl)ccc2N=C2N(c3ccc4sccc4c3)CC[C@@]12O [BPN-0026546] | Criterion met
Cc1cc2c(cc1C(F)(F)F)N=C1N(c3ccc(C#N)cc3)CC[C@@]1(O)C2=O [BPN-0027071] | Criterion not met
Cc1ccc2cc(N3CC[C@@]4(O)C(=O)c5cc(C)sc5N=C34)ccc2n1 [BPN-0028898] | Criterion not met
CCc1ccc2cc(N3CC[C@@]4(O)C(=O)c5cc(C)c(C)cc5N=C34)ccc2n1 [BPN-0028867] | Criterion met
Cc1cc2c(cc1C)C(=O)[C@]1(O)CCN(c3cccs3)C1=N2 [BPN-0026708] | Criterion met
Cc1cc2c(cc1C)C(=O)[C@]1(O)CCN(c3ccc(Cl)cc3)C1=N2 [BPN-0026662] | Criterion met
O=C1c2cc(Cl)ccc2NC2N(c3ccc4ccoc4c3)CC[C@@]12O (stereo partly shown) [BPN-0026401] | Criterion met
Cc1cc2c(cc1C)C(=O)[C@]1(O)CCN(c3ccc4sc(C(C)C)nc4c3)C1=N2 [BPN-0028919] | Criterion met
Cc1cc2c(cc1C)C(=O)[C@]1(O)CCN(c3ccc4c(c3)OCCO4)C1=N2 [BPN-0028921] | Criterion met
CCc1cc2c(s1)N=C1N(c3ccc(OC)cc3)CC[C@@]1(O)C2=O [BPN-0026881] | Criterion met
Cc1ccc2c(c1)C(=O)[C@]1(O)CCN(c3cc4cccnc4s3)C1=N2 [BPN-0027469] | Criterion met
Cc1ccc2c(c1)C(=O)[C@]1(O)CCN(c3ccn4ncnc4c3)C1=N2 [BPN-0027441] | Criterion not met
Cc1cc2c(cc1Cl)C(=O)[C@]1(O)CCN(c3ccccc3)C1=N2 [BPN-0026659] | Criterion met
Cc1nc2cc(N3CC[C@@]4(O)C(=O)c5cc(C)c(C)cc5N=C34)ccc2s1 [BPN-0027491] | Criterion met
CCc1cc(N2CC[C@@]3(O)C(=O)c4cc(C)c(C)cc4N=C23)ccn1 [BPN-0028864] | Criterion not met
Cc1cc2c(cc1C)C(=O)[C@]1(O)CCN(c3ccc4ncccc4c3)C1=N2 [BPN-0027215] | Criterion met

====

Reported Ratio CMMII:NMII Ki/EC50 is given for each of the following compounds.
study.target: Bovine cardiac myosin (Bos taurus (Bovine))
Sequence (Q9BE39 whole entry): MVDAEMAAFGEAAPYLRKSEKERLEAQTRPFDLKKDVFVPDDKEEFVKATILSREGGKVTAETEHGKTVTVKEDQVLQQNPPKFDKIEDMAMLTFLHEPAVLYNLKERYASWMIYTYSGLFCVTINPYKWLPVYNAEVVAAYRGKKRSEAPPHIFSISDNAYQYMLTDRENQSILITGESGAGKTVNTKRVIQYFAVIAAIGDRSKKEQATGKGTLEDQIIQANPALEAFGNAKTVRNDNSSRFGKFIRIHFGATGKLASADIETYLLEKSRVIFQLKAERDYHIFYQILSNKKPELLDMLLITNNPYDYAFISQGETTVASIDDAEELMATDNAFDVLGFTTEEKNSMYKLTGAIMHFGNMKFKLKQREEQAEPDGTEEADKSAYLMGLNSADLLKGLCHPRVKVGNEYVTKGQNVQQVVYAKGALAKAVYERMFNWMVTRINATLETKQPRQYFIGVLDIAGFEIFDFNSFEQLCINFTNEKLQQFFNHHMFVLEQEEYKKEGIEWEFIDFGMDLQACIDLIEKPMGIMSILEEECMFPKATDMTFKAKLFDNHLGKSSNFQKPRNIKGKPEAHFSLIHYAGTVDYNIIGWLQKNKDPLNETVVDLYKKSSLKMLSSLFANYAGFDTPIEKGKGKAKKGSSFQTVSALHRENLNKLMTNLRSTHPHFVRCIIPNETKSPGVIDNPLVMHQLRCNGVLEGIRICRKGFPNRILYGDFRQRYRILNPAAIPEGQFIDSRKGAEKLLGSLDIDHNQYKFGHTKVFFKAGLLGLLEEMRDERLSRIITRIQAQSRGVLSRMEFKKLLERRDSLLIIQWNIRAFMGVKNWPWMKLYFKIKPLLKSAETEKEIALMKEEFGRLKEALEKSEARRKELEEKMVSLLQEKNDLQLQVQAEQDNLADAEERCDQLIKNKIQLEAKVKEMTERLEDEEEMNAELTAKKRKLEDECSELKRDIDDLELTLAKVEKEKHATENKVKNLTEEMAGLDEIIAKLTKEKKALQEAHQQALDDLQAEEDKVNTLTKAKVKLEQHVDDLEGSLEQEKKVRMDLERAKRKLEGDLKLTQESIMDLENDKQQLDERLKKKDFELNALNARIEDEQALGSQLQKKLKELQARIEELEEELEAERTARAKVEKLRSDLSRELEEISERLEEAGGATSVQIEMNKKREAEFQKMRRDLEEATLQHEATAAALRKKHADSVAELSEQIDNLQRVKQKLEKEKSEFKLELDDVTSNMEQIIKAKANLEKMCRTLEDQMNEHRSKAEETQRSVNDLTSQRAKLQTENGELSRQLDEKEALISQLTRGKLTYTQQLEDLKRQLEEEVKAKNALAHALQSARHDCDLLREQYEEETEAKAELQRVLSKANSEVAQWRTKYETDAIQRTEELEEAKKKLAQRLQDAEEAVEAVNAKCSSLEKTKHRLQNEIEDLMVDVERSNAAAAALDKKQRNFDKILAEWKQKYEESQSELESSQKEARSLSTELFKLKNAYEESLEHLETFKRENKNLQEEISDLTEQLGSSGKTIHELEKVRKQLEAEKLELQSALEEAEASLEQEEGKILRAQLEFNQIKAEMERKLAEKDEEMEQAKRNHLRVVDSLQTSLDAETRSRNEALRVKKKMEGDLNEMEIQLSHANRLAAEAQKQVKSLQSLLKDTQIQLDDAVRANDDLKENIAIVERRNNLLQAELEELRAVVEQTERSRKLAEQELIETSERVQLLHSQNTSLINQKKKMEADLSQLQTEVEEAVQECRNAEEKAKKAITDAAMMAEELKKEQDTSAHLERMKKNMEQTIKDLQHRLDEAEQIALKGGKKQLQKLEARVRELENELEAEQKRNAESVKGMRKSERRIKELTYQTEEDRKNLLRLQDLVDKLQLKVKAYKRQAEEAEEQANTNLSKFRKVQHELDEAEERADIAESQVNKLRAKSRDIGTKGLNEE
Sequence (P85100 whole entry partner): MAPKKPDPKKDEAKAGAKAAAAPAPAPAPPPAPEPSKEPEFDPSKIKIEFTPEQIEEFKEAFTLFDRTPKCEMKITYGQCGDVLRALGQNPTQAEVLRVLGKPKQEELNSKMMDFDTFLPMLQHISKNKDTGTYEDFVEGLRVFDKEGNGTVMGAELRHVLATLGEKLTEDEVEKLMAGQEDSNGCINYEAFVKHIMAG
Sequence (Q3SZE5 whole entry partner): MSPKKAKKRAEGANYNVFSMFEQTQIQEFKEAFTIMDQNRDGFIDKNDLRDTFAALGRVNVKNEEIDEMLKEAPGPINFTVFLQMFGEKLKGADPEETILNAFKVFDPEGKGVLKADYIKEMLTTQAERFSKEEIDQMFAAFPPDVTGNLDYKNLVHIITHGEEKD
experimental.protocol: Cardiac muscle myosin II actin-activated ATPase assay (NADH-coupled)
Type: biochemical
condition.notes: cardiac myosin II Ki over nonmuscle myosin II EC50
Protocol: The cardiac muscle myosin II actin-activated ATPase assay is a biochemical assay. Specifically, it is an NADH (nicotinamide adenine dinucleotide)-coupled ATPase assay that relies on NADH fluorescence as a readout. […] NADH fluorescence is monitored for 30 minutes with an EnVision Multimode Plate Reader. The slope of the fluorescence response, which is proportional to the reaction rate, is determined by simple linear regression. […]
test.readout: Ratio CMMII:NMII Ki/EC50

compound | endpoint.result
Cc1cc(N2CC[C@@]3(O)C(=O)c4c(sc(C)c4C)NC23)ccc1C#N (some centres unmarked) | 7.0
Cc1cc2c(cc1C)C(=O)[C@]1(O)CCN(c3ccc(Cl)cc3)C1=N2 | 5.5
Cc1ccc2c(c1)C(=O)[C@]1(O)CCN(c3ccc4nc(CO)ccc4c3)C1=N2 | 12.4
COc1ccc(N2CC[C@@]3(O)C(=O)c4cc(C)c(C)cc4N=C23)cn1 | 3.4
Cc1cc2c(cc1C)C(=O)[C@]1(O)CCN(c3cnc(CO)c(Cl)c3)C1=N2 | 7.1
CCc1cc2c(s1)N=C1N(c3ccc(C#N)cc3)CC[C@@]1(O)C2=O | 6.3
N#Cc1ccc(N2CC[C@@]3(O)C(=O)c4cc(C(F)(F)F)ccc4N=C23)cc1 | 11.6
Cc1ccc2c(c1)C(=O)[C@]1(O)CCN(c3ccc4c(c3)OCCN4)C1=N2 | 3.6
Cc1sc2c(c1C)C(=O)[C@]1(O)CCN(c3ccc(Cl)cc3)C1=N2 | 3.6
Cc1cc2c(cc1C)C(=O)[C@]1(O)CCN(c3ccc4c(c3)COCCN4)C1=N2 | 4.1
Cc1ncc(N2CC[C@@]3(O)C(=O)c4cc(F)c(C(F)(F)F)cc4N=C23)s1 | 5.2
COc1cc(N2CC[C@@]3(O)C(=O)c4cc(C)ccc4N=C23)ccn1 | 4.6

====

Reported Ratio CMMII:NMII Ki/EC50 is given for each of the following molecules.
study.target: UniProtKB Q9BE39
experimental.protocol: Cardiac muscle myosin II actin-activated ATPase assay (NADH-coupled)
Type: biochemical
condition.notes: cardiac myosin II Ki over nonmuscle myosin II EC50
test.readout: Ratio CMMII:NMII Ki/EC50

smiles.structure | study.target | endpoint.result
Cc1cc(N2CC[C@@]3(O)C(=O)c4cc(C)c(C(F)(F)F)cc4N=C23)on1 | UniProtKB Q9BE39 | 6.9
Cc1cc2c(cc1C)C(=O)[C@]1(O)CCN(c3cnn(C)c3)C1=N2 | UniProtKB Q9BE39 | 3.1
Cc1cc2c(cc1C)C(=O)[C@]1(O)CCN(c3ccc4oc(CO)cc4c3)C1=N2 | UniProtKB Q9BE39 | 6.1
Cc1cc2c(cc1C)C(=O)[C@]1(O)CCN(c3ccc4nc(CN(C)C)ccc4c3)C1=N2 | UniProtKB Q9BE39 | 33.3
Cc1cc2c(s1)N=C1N(c3ccc4ccoc4c3)CC[C@@]1(O)C2=O | UniProtKB Q9BE39 | 4.2

====

study.target: Rabbit skeletal myosin
experimental.protocol: Skeletal muscle myosin II actin-activated ATPase assay
condition.notes: 20 nM skeletal muscle myosin II; read-out: SKMMII KI
pKi: −log10 of the molar value.
Reported pKi is given for each of the following compounds.

compound | pKi
Cc1cc2c(cc1C)C(=O)[C@]1(O)CCN(c3ccc4c(c3)NCCS4)C1=N2 [BPN-0028922] | 6.11
Cc1cc2c(cc1C)C(=O)[C@]1(O)CCN(c3ccc4ncc(CN(C)C)cc4c3)C1=N2 [BPN-0028866] | 3.40
O=C1c2cc(C(F)(F)F)ccc2N=C2N(c3ccc4ncccc4c3)CC[C@@]12O [BPN-0027218] | 4.40
COc1ccc2cc(N3CC[C@@]4(O)C(=O)c5cc(C)ccc5N=C34)ccc2n1 [BPN-0027255] | 6.10
Cc1cccc(N2CC[C@@]3(O)C(=O)c4cc(C)ccc4N=C23)c1 [BPN-0025100] | 5.01
CCc1cc2c(s1)N=C1N(c3ccc(C#N)cc3)CC[C@@]1(O)C2=O [BPN-0027038] | 6.21
COc1ccc(N2CC[C@@]3(O)C(=O)c4cc(C)c(C(F)(F)F)cc4N=C23)cc1 [BPN-0026849] | 6.11
Cc1ccc2c(c1)C(=O)[C@]1(O)CCN(c3ccc4nsnc4c3)C1=N2 [BPN-0027394] | 5.96

====

experimental.protocol: Photostability, percentage remaining undegraded under illumination or in the dark
condition.notes: percentage remaining undegraded after 24 hours illumination

smiles.structure | Photostability 24 hours
Cc1cc2c(s1)N=C1N(c3ccc(C#N)c(C)c3)CC[C@@]1(O)C2=O | >99%
Cc1ccc2c(c1)C(=O)[C@]1(O)CCN(c3ccc4nccnc4c3)C1=N2 | 64.6%
Cc1cc2c(cc1C(F)(F)F)N=C1N(c3ccc4ccoc4c3)CC[C@@]1(O)C2=O | 97.0%
COc1cc(N2CC[C@@]3(O)C(=O)c4cc(C(F)(F)F)ccc4N=C23)ccn1 | 6.4%
O=C1c2cc(C(F)(F)F)ccc2N=C2N(c3ccc4ncsc4c3)CC[C@@]12O | 3.8%
Cc1ccc2c(c1)C(=O)[C@]1(O)CCN(c3ccc(C#N)c(Cl)c3)C1=N2 | 98.7%
Cn1cc(N2CC[C@@]3(O)C(=O)c4cc(C(F)(F)F)ccc4N=C23)cn1 | 82.2%
Cc1ccc2c(c1)C(=O)[C@]1(O)CCN(c3ccc4ncccc4c3)C1=N2 | 21.4%
